# PROCEDURE SUMMARY: yeast display, Sf9 membrane polyspecificity reagent, FACS + sequencing; frameworks hold sequencing errors

[
  {
    "POLYMER SEQUENCE": "QGQLVESCGGLVQAGGSLRLSCAASGRTFYYYAMGWYRQAPRKERELVAAMTSGGRTNSADSVKGRFTSSRDKATNTDSLQMNSLKPEDTAVYYCAKPPYSQYEFDYWGQGTQVTVSS",
    "polyreactivity (PSR sort gate)": "high polyreactivity"
  },
  {
    "POLYMER SEQUENCE": "QVQLVESGGGLVQAGGSLRLSCAASGRTFEYYAMGWYRQAPGKERELVASISFGGGSTYADSVKGRFTISRDNAKNTVYLQMNSLKPEDTAVYYCAATGGWYKHWFDYWGQGTQVTVSS",
    "polyreactivity (PSR sort gate)": "low polyreactivity"
  },
  {
    "POLYMER SEQUENCE": "QVQLVESGGGFVQAGGSLRLSCAASGFTFYRNAMGWYRQAPGKERELVAAITWSGTSTYYADSVKGRFTISRDNAKTTVYVQMNSLKPEDTAVYYCNTVGYRGRSNSRFYYWGQGTQVTVSS",
    "polyreactivity (PSR sort gate)": "high polyreactivity"
  },
  {
    "POLYMER SEQUENCE": "QVQLVESGGGLVQAGGSLRLSCAASGFILDTYAMGWYRQAPGKERELVAAISASGSSTYYADSVKGRFTISRDNAKNTVYLQMNSLKPEDTAVYYCAAKDTGYGYGFPRLDYWGQGTQVTVSS",
    "polyreactivity (PSR sort gate)": "low polyreactivity"
  },
  {
    "POLYMER SEQUENCE": "QVQLVESGGGLVQAGGSLRLSCAASGLIFRHYVMGWYRQAPGKERELVAAITSRGGTTYYADSVKGRFTISRDNAKNTVYLQMNSLKPEDTAVYYCATVHSYTIQRYDYWGQGTQVTVSS",
    "polyreactivity (PSR sort gate)": "high polyreactivity"
  },
  {
    "POLYMER SEQUENCE": "QVQLVESGGGLVQAGGSLRLSCAASGRIFSDYAMGWYRQAPGKERELVAAISWGGGRTYYADSVKGRFTISRDNAKNTVYLQMNSLKPEDTAVYYCNRGTVNSWARGYWGQGTQVTVSS",
    "polyreactivity (PSR sort gate)": "high polyreactivity"
  },
  {
    "POLYMER SEQUENCE": "QVQLVESGGGIVQAGGSLRLSCAASGRIFTRYVMGWYRQAPGKERELVAAITGRGTTTYYADSVKGRFTISRDNAKNTVYLKMNSLKPEDTAVYYCAATYYASNPQFTTNYGYWGQGTQVTVSS",
    "polyreactivity (PSR sort gate)": "high polyreactivity"
  },
  {
    "POLYMER SEQUENCE": "QVQLVESGGGLVQAGGSLRLSCAASGRTFPYYAMGWYRQAPGKERELVAAITSGGSTYYADSVKGRFTISRDNAKNTVYLQMNSLKPEDTAVYYCNALLGYYRWRRPVDYSYGSWGQGTQVTVSS",
    "polyreactivity (PSR sort gate)": "high polyreactivity"
  },
  {
    "POLYMER SEQUENCE": "QVQLVESGGGLVQAGGSLRLSCASSGSIFDFNAMGWYRQAPGKERELVATIRYSGGSTYYADSVKGRFTISRDNAKNTVYLQMNSLKPVDTAVYYCAADPDWTHWFAYYYHYGYWGQGTQVTVSS",
    "polyreactivity (PSR sort gate)": "low polyreactivity"
  },
  {
    "POLYMER SEQUENCE": "QVHLVESGGGLVQAGGSLRLSCPASGSTIRRYAMGWYRQPHGKERELVAAIRQRGTYTYYADSVKGRFTISRDTAKNTVYLQMNSLKPEDTAVYYCSGVPSLWLFNSWGQGTQVTVSS",
    "polyreactivity (PSR sort gate)": "high polyreactivity"
  },
  {
    "POLYMER SEQUENCE": "QVQLVESGGGLVQAGGSLRLSCAASGRIFKNNAMGWYRQAPGKERELVAVISGSGGSTYADSVKGRFTISRDNAKNTVYLQLNSLKPADTAVYYCAASRYYRIWYSLLQGYDYWGQGTQVTVSS",
    "polyreactivity (PSR sort gate)": "high polyreactivity"
  }
]

Ref: the nanobody polyreactivity screen of Harvey et al. (2022)
